# protocol: YAP1 pathway inhibitors via CTGF transcript, primary screen, DLD1 colon cancer cells, RT-qPCR, single point (AID 743449);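 also: 0% = neutral control wells and 100% = dasatinib control wells; higher means stronger suppression of CTGF expression like dasatinib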
# testContext: DLD1 CTGF mRNA qPCR, 24 h; at 12.5 µM; active compounds read high
In all, about 9,900 compounds went through this assay and about 90 (0.9%) were called active. Inconclusive results (about 2%) are left out. The full list was thinned out, with actives kept by preference.
valueKind: inhibition (%)
The figure you give is taken to be in %; do not add the unit.

Entry under test: C[C@@H]1CN([C@H](C)CO)C(=O)c2cc(C#Cc3ccccc3)cnc2O[C@@H]1CN(C)C(=O)c1ccccc1 . Its inhibition was 14.1

In plain terms, C[C@H]1CN([C@@H](C)CO)C(=O)c2cc(C#Cc3ccccc3)cnc2O[C@@H]1CN(C)C(=O)c1ccccc1 has a documented inhibition of 34.5

Memo: C[C@@H]1CN([C@@H](C)CO)C(=O)c2cc(NC(=O)Nc3ccccc3)ccc2O[C@@H](C)CCCCO[C@@H]1CN(C)C(=O)Nc1ccccc1 , reported inhibition: 62.7

Field inhibition (entry C[C@@H]1CN([C@H](C)CO)C(=O)c2ccccc2-c2ccccc2CO[C@@H]1CN(C)C(=O)Nc1cccc(C(F)(F)F)c1 ) reads 14.3

Documented inhibition of C[C@H](CO)N1C[C@H](C)[C@H](CN(C)C(=O)Nc2ccc(-c3ccccc3)cc2)OCc2ccccc2-c2ccccc2C1=O : 28.1

Form field inhibition, entry O=C(CN1CCOCC1)N1CC(=O)N2[C@H](CO)[C@H](c3ccc(-c4cccc(F)c4)cc3)[C@@H]2C1 : -2.97

Quick note, inhibition for C[C@@H]1CN([C@@H](C)CO)C(=O)c2ccccc2-c2ccccc2CO[C@H]1CN(C)C(=O)Nc1cccc(C(F)(F)F)c1 landed at 64.7

* * *

Hi there, I'd appreciate the recorded inhibition for every entry that follows.
# protocol: YAP1 pathway inhibitors via CTGF transcript, primary screen, DLD1 colon cancer cells, RT-qPCR, single point (AID 743449);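 also: 0% = neutral control wells and 100% = dasatinib control wells; higher means stronger suppression of CTGF expression like dasatinib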
# testContext: DLD1 CTGF mRNA qPCR, 24 h; at 12.5 µM; active compounds read high
Among all 9,900 compounds or so, about 90 (0.9%) were called active. Roughly 2% stayed inconclusive and do not appear here. This is one part of a sample in which actives are shown more often than they occur.
State the answer as a number, implicitly in %.

Entry C[C@@H](NC(=O)C[C@@H]1CC[C@H]2[C@@H](COc3ccc(NC(=O)C4CCOCC4)cc3C(=O)N2C)O1)c1ccccc1 — recorded inhibition = -5.56

Reported inhibition of CCCC#Cc1ccc2c(c1)O[C@@H](CN(C)Cc1ccccn1)[C@@H](C)CN([C@@H](C)CO)S2(=O)=O : -16.9

inhibition recorded for this compound, O=C(C1CCOCC1)N1C[C@H]2[C@@H](c3ccccc31)[C@H](CO)N2C(=O)Cc1ccccn1 , is -3.22

Sample COCCNC(=O)C[C@@H]1C[C@H]2c3cc(NC(=O)CN(C)C)ccc3O[C@H]2[C@H](CO)O1 ; inhibition observed: 0.098

Item: CCS(=O)(=O)N1CC(=O)N2[C@H](CO)[C@@H](c3ccc(C4=CCCCC4)cc3)[C@@H]2C1 | inhibition: 0.977

Notebook: CC(=O)N1CC2(C1)[C@H](c1ccccc1)[C@H](CO)N2C(=O)c1cnccn1 , inhibition read as -10.2

Entry C[C@H]1CN([C@@H](C)CO)C(=O)c2ccccc2-c2ccccc2CO[C@H]1CN(C)Cc1ccc2c(c1)OCCN2C ; inhibition = -29.2

The compound listed as C[C@@H]1CN([C@H](C)CO)C(=O)Cc2cc(NS(=O)(=O)c3cccs3)ccc2O[C@@H]1CN(C)CC1CCCCC1 has a reported inhibition of 1.75
